These measurements were taken from ChEMBL document CHEMBL4190403.

# TARGET: Serine/threonine-protein kinase B-raf (Mus musculus, UniProt P28028, V600E)
# Sequence (P28028 whole entry, looked up, stated change not applied): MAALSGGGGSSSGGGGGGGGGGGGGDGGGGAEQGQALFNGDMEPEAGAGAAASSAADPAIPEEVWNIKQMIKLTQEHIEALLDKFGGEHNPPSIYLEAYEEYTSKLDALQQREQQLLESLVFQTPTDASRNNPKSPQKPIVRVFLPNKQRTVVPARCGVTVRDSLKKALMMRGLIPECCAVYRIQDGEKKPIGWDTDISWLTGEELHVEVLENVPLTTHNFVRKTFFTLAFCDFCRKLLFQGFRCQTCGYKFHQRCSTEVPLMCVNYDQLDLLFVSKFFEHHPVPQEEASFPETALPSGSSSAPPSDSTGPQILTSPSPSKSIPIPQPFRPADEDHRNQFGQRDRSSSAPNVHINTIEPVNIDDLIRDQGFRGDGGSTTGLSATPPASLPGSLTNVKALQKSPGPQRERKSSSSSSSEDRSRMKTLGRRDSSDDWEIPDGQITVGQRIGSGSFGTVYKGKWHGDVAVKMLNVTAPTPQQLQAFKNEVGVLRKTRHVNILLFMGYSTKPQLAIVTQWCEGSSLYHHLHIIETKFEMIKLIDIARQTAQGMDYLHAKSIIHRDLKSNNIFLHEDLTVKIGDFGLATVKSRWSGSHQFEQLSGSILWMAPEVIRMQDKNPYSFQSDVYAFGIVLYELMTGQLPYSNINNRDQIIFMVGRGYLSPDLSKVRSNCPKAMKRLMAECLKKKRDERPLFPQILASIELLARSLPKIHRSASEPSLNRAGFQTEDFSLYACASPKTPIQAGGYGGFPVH
# EXPERIMENT DESCRIPTION: Inhibition of full-length GST-tagged mouse BRAF V600E mutant using recombinant human full length N-terminal His-tagged MEK1 as substrate preincubated for 1 hr followed by substrate addition measured after 25 mins by Nu-page gel-based phosphor screen analysis
READOUT NAME: IC50 (nM)

1) O=C(Cn1ccc2ccccc21)Nc1cnn(-c2ccccc2)c1: 1230

A. Cc1ccc(-n2cc(NC(=O)Cn3ccc4ccccc43)cn2)cc1
B. COc1ccc(-n2cc(NC(=O)Cn3ccc4ccccc43)cn2)cc1
Of the pair A and B , name the member with the lesser recorded IC50. The response must carry the label of the picked entry.
B
(B: 1280 nM, A: 2340 nM)

----------
# System: A-375
# EXPERIMENT DESCRIPTION: Antiproliferative activity against human A375 cells harboring BRAF V600E mutant after 24 hrs by MTT assay
# Type: functional, cell-based
# CONDITION: A-375, 24 h
READOUT NAME: IC50 (µM)

1. Cn1cc(NC(=O)Cn2ccc(-c3ccccn3)n2)cn1: 23.7
2. Cn1cc(NC(=O)Cn2ccc(-c3cccc(Cl)c3)n2)cn1: 16.8
3. Cn1cc(NC(=O)Cn2ccc3ccccc32)cn1: 28.9
4. COc1cccc(-n2cc(NC(=O)Cn3ccc4ccccc43)cn2)c1: 5.67
5. O=C(Cn1ccc(-c2cccc(Cl)c2)n1)Nc1cnn(Cc2ccccc2)c1: 3.26
6. CCn1cc(NC(=O)Cn2ccc(-c3ccccn3)n2)cn1: 23.3
7. COc1ccc(-n2cc(NC(=O)Cn3ccc4ccccc43)cn2)cc1: 19.8
8. O=C(Cn1ccc(-c2ccccn2)n1)Nc1cnn(Cc2ccccc2)c1: 19.8
9. Cc1ccc(-n2cc(NC(=O)Cn3ccc4ccccc43)cn2)cc1: 24.5

1. CCn1cc(NC(=O)Cn2ccc(-c3cccc(Cl)c3)n2)cn1
2. COc1ccc(-n2cc(NC(=O)Cn3ccc(-c4cccc(Cl)c4)n3)cn2)cc1
3. COc1ccc(-n2cc(NC(=O)Cc3ccc(OC)c(OC)c3)cn2)cc1
4. COc1cccc(-n2cc(NC(=O)Cn3ccc(-c4ccccn4)n3)cn2)c1
Returns the items ordered by IC50, from maximum to minimum. Would you mind listing the labels in the order asked for?
1, 3, 4, 2

----------
# Tested on: A-375
# EXPERIMENT DESCRIPTION: Antiproliferative activity against human A375 cells harboring BRAF V600E mutant after 24 hrs by MTT assay
# Type: functional, cell-based
# CONDITION: A-375, 24 h
READOUT NAME: IC50 (µM)

1. CCn1cc(NC(=O)Cn2ccc3ccccc32)cn1: 27.2
2. O=C(Cn1ccc2ccccc21)Nc1cnn(Cc2ccccc2)c1: 17.6
3. COc1ccc(CC(=O)Nc2cnn(Cc3ccccc3)c2)cc1OC: 10.4
4. COc1ccc(CC(=O)Nc2cnn(C)c2)cc1OC: 18.6
5. COc1cccc(-n2cc(NC(=O)Cc3ccc(OC)c(OC)c3)cn2)c1: 3.49

P. COc1ccc(-n2cc(NC(=O)Cn3ccc(-c4ccccn4)n3)cn2)cc1
Q. COc1ccc(CC(=O)Nc2cnn(-c3ccc(C)cc3)c2)cc1OC
R. O=C(Cn1ccc2ccccc21)Nc1cnn(-c2ccccc2)c1
S. COc1ccc(CC(=O)Nc2cnn(-c3ccccc3)c2)cc1OC
Rank the 4 compounds: largest IC50 first, smallest last. Your reply should list the labels following the order given in the request.
R, S, P, Q

a. O=C(Cn1ccc(-c2ccccn2)n1)Nc1cnn(-c2ccccc2)c1
b. CCn1cc(NC(=O)Cc2ccc(OC)c(OC)c2)cn1
Please state the entry with greater IC50 among a and b . To answer, give the label that identifies your chosen option.
b

----------
# TARGET: Serine/threonine-protein kinase B-raf (Mus musculus, UniProt P28028, V600E)
# EXPERIMENT DESCRIPTION: Inhibition of full-length GST-tagged mouse BRAF V600E mutant using recombinant human full length N-terminal His-tagged MEK1 as substrate preincubated for 1 hr followed by substrate addition measured after 25 mins by Nu-page gel-based phosphor screen analysis
pIC50: −log10 of the molar value.
READOUT NAME: pIC50

Consider the following illustrative entries.
1. COc1ccc(-n2cc(NC(=O)Cc3ccc(OC)c(OC)c3)cn2)cc1: 6.39
2. COc1cccc(-n2cc(NC(=O)Cc3ccc(OC)c(OC)c3)cn2)c1: 6.44
3. COc1cccc(-n2cc(NC(=O)Cn3ccc4ccccc43)cn2)c1: 6.34
4. COc1ccc(-n2cc(NC(=O)Cn3ccc(-c4ccccn4)n3)cn2)cc1: 6.32

P. O=C(Cn1ccc(-c2ccccn2)n1)Nc1cnn(Cc2ccccc2)c1
Q. O=C(Cn1ccc2ccccc21)Nc1cnn(Cc2ccccc2)c1
For this pair, P and Q , which shows a numerically higher pIC50? Answer with the label corresponding to your selection.
P
(P: 6.26, Q: 5.71)

----------
# TARGET: Serine/threonine-protein kinase B-raf (Mus musculus, UniProt P28028, V600E)
# EXPERIMENT DESCRIPTION: Inhibition of full-length GST-tagged mouse BRAF V600E mutant using recombinant human full length N-terminal His-tagged MEK1 as substrate preincubated for 1 hr followed by substrate addition measured after 25 mins by Nu-page gel-based phosphor screen analysis
pIC50: −log10 of the molar value.
READOUT NAME: pIC50

1) O=C(Cn1ccc(-c2cccc(Cl)c2)n1)Nc1cnn(Cc2ccccc2)c1: 6.47

P. CCn1cc(NC(=O)Cn2ccc3ccccc32)cn1
Q. Cn1cc(NC(=O)Cn2ccc3ccccc32)cn1
Between P and Q , which one shows the larger pIC50 value? Write down the label of the entry you select.
P
(P: 5.74, Q: 5.33)

----------
# TARGET: Serine/threonine-protein kinase B-raf (Mus musculus, UniProt P28028, V600E)
# EXPERIMENT DESCRIPTION: Inhibition of full-length GST-tagged mouse BRAF V600E mutant using recombinant human full length N-terminal His-tagged MEK1 as substrate preincubated for 1 hr followed by substrate addition measured after 25 mins by Nu-page gel-based phosphor screen analysis
pIC50: −log10 of the molar value.
READOUT NAME: pIC50

1. Cn1cc(NC(=O)Cn2ccc(-c3ccccn3)n2)cn1: 5.60

a. Cn1cc(NC(=O)Cn2ccc(-c3cccc(Cl)c3)n2)cn1
b. COc1cccc(-n2cc(NC(=O)Cn3ccc(-c4ccccn4)n3)cn2)c1
Form field 'greater pIC50' accepts a or b ; which applies? # respond with the chosen item's label
b
(b: 6.59, a: 5.78)
